Tested on: HIV-1 (NL4-3 strain)
Experiment: Assay for inhibition of HIV replication (MT4-gag-GFP reporter cell line, kinetic assay)
Type: cell-based
Conditions: Human immunodeficiency virus 1, NL43, Table B (selected enantiomeric compounds); 0% normal human serum; read-out: Wild Type Cell Assay IP (0% NHS)
Form field: IC50 (one value per entry).
reported.property: IC50 (µM)

compound: CCN1C(=O)c2c(O)c(=O)c(-c3nnc(Cc4ccc(F)cc4F)s3)cn2C2COC[C@@H]21 (single isomer, unassigned) [Compound 4]
readout.number: 0.008
--
compound: CCN1C(=O)c2c(O)c(=O)c(-c3cn(Cc4ccc(F)cc4F)nn3)cn2C2COC[C@@H]21 (single isomer, unassigned) [Compound 16]
readout.number: 0.038
